Source of measurements: ChEMBL document CHEMBL3407332

System: Leishmania panamensis
Assay comment: Antileishmanial activity against amastigote stage of Leishmania panamensis MHOM/CO/87/UA140-EpiR-GFP infected in human U937 cells assessed as parasite growth inhibition at 20 ug/mL after 72 hrs by flow cytometric analysis relative to control
Format: functional
Conditions: MHOM/CO/87/UA140, U-937, 72 h, read-out: GI
In this section we review reported inhibition of growth at 20 µg/mL values for a set of compounds.
Readout type: inhibition of growth at 20 µg/mL

Compound	Readout type	Assay result
COc1cc(C2CC(c3ccc(Cl)cc3)=NN2C(C)=O)ccc1Oc1nc2c(c(=O)n(C)c(=O)n2C)n1C (stereo unspecified)	inhibition of growth at 20 µg/mL	39.1%
COc1ccc(C2=NN(C=O)C(c3ccc(Oc4nc5c(c(=O)n(C)c(=O)n5C)n4C)c(OC)c3)C2)cc1 (stereo unspecified)	inhibition of growth at 20 µg/mL	48.1%
COc1cc(/C=C/C(=O)c2ccc(Cl)cc2)ccc1Oc1nc2c(c(=O)n(C)c(=O)n2C)n1C	inhibition of growth at 20 µg/mL	88.3%
COc1cc(C2CC(c3cc(OC)c(OC)c(OC)c3)=NN2C=O)ccc1Oc1nc2c(c(=O)n(C)c(=O)n2C)n1C (stereo unspecified)	inhibition of growth at 20 µg/mL	30.1%
COc1cc(C2CC(c3ccc(Cl)cc3)=Nc3c(C)nn(-c4ccccc4)c3N2)ccc1Oc1nc2c(c(=O)n(C)c(=O)n2C)n1C (stereo unspecified)	inhibition of growth at 20 µg/mL	0%
COc1cc(/C=C/C(=O)c2ccccc2)ccc1Oc1nc2c(c(=O)n(C)c(=O)n2C)n1C	inhibition of growth at 20 µg/mL	40.4%
COc1cc(C2CC(c3cc(OC)c(OC)c(OC)c3)=NN2C(C)=O)ccc1Oc1nc2c(c(=O)n(C)c(=O)n2C)n1C (stereo unspecified)	inhibition of growth at 20 µg/mL	87.6%
COc1cc(/C=C/C(=O)c2ccc(Br)cc2)ccc1Oc1nc2c(c(=O)n(C)c(=O)n2C)n1C	inhibition of growth at 20 µg/mL	50.8%
COc1cc(C2CC(c3cc(OC)c(OC)c(OC)c3)=Nc3c(C)nn(-c4ccccc4)c3N2)ccc1Oc1nc2c(c(=O)n(C)c(=O)n2C)n1C (stereo unspecified)	inhibition of growth at 20 µg/mL	0%
COc1ccc(C2=Nc3c(C)nn(-c4ccccc4)c3NC(c3ccc(Oc4nc5c(c(=O)n(C)c(=O)n5C)n4C)c(OC)c3)C2)cc1 (stereo unspecified)	inhibition of growth at 20 µg/mL	0%
C[C@@H]1[C@H](O)[C@@H](C)/C=C/C=C/C=C/C=C/C=C/C=C/C=C/[C@H](O[C@@H]2O[C@H](C)[C@@H](O)[C@H](N)[C@@H]2O)C[C@@H]2O[C@](O)(C[C@@H](O)C[C@@H](O)[C@H](O)CC[C@@H](O)C[C@@H](O)CC(=O)O[C@H]1C)C[C@H](O)[C@H]2C(=O)O	inhibition of growth at 20 µg/mL	100%
